molecular target: T1, 6xHis-tagged cyPD-L1 (cynomolgus monkey, UniProt Q9NZQ7 19-238 (human entry)); assay: ELISA, plate-coated 6xHis cyPD-L1, A450
T1 construct: The assay text says only '6xHis-tagged cyPD-L1'; also called cynomolgus PD-L1; not shown: 6xHis tag
T1 sequence (Q9NZQ7 other isoform, or with tags, fused parts or gaps): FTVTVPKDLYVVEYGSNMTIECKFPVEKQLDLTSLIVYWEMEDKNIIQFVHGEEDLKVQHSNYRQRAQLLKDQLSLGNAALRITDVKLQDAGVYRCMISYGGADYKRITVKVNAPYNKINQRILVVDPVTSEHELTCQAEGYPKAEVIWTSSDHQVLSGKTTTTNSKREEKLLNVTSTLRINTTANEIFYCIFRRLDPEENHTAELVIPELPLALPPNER
Please go through the items and note down their Absolute IC50.
Please give a number only; it is taken to be in ng/mL.

// fetch Absolute IC50 given entry 3B1 (antibody, V domains shown) VH: QIQLVQSGPELKKPGETVKISCKASGYDFTNYGMNWVKQAPGKGLKWMGYINTYTGEPAYADDFKGRFAFSLETSARTAYLRINNLKNEDTATYFCATRAYYGHYLAYWGQGTLVTVSA VL: DVLMTQTPLSLPVSLGDQASISCRSSQRIVHSNGNTYLEWYLQKPGQSPKLLIYKVSNRFSGVPDRFSGSGSGTDFTLKISRVEAEDLGVYYCFQGSHVPYTFGGGTKLEIK 56.9

Answer with reported Absolute IC50 of 2M3 (antibody, V domains shown) VH: EVQLVESGGGFVQTGGSLRLSCAASGFNFRSYDMHWVRQVIGKGLEWVSGIGPGGDTYYPGSVKGRFTISRENAKNSLYLQMNSLRAGDTAVYYCAREQFEGHYFDYWGQGTLVTVSS VL: DIQMTQSPSSVSASVGDRVNITCRASQGISSWLAWYQQKPWKAPKLLIYTASSLQSGVPSRFSGSGSGTDFTLTISSLQPEDFATYYCQQANSFPITFGQGTRLEIK 672

Identify Absolute IC50 associated with the binder 3B6 (antibody, V domains shown) VH: EVKLVESGGGLVQPGGSLRLSCGTSGFTFSDFYVEWVRQPPGKRLEWIAASRNKVNDYTTEYSESVKGRFIVSRDTSQNILYLQMNALRAEDSAIYYCARNVPWDGWYFDVWGAGTAVTVSS VL: DIVMTQSQKFMSTSVGDRVSITCKASQNVRTAVAWFQQKPGQSPKALIYLASTRHTGVPDRFTGSGSGTDFTLTISNVQSEDLADYFCLQHWNYPRTFGGGTKLEIK 246

Give me measured Absolute IC50, please, for this binder: 3B5 (antibody, V domains shown) VH: QIQLVQSGPELKKPGETVKISCKASGYDFTNYGMNWVKQAPGKGLKWMGYINTYTGEPAYADDFKGRFAFSLETSARTAYLRINNLKNEDTATYFCATRAYYGHYLAYWGQGTLVTVSA VL: QIVLTQSPAIMSASPGEKVTITCSASSSVSYMHWFQQKPGTSPKLWIYSTSNLASGVPARFSGSGSGTSYSLTISRMEAEDAATYYCQQRSSYPFTFGSGTKLEIK 325
